Molecular target: T. vaginalis Tv20S proteasome β5 subunit (Trichomonas vaginalis, UniProt A2DD57+A2F716)
Sequence (A2DD57 entry or part of it): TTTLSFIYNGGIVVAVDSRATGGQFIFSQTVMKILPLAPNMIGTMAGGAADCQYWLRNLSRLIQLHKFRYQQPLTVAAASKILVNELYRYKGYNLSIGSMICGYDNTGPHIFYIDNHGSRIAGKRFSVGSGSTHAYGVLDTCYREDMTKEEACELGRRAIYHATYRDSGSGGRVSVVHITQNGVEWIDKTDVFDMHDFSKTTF
Sequence (A2F716 entry or part of it): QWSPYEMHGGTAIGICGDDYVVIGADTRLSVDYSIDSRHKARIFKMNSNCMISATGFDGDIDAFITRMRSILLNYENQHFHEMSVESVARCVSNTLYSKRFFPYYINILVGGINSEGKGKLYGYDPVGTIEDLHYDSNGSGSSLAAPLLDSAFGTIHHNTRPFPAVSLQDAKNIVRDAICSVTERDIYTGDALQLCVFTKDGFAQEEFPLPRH
Assay: biochemical
Type: biochemical
Conditions: recombinant Tv20S, mean ± SD of three experiments; read-out: Tv20S proteasome inhibition of β5 subunit (IC50)
pIC50: −log10 of the molar value.
endpoint.label: pIC50

molecule=CCCCCC(=O)N[C@@H](CO)C(=O)N[C@@H](CCCC)C(=O)N[C@@H](Cc1ccccc1)C(=O)[C@@]1(C)CO1 number=7.68
molecule=COc1ccc(C[C@H](NC(=O)[C@H](C)NC(=O)C2=C(C)c3ccccc3C2)C(=O)N[C@@H](Cc2ccccc2)C(=O)[C@]2(C)CO2)cc1 number=7.22
molecule=CCCC[C@H](NC(=O)[C@H](CC(=O)N1CCCC1)NC(=O)[C@H](Cc1ccc(OC)cc1)N1CCCC1=O)C(=O)N[C@@H](Cc1ccc(F)cc1F)C(=O)[C@@]1(C)CO1 number=7.08

a. CCCCCC(=O)N[C@H](CC(=O)N[C@@H](CCCC)C(=O)N[C@@H](Cc1ccc(F)cc1F)C(=O)[C@@]1(C)CO1)CC(=O)OC(C)(C)C
b. CCCCCC(=O)NC(CC(=O)NC(CCCC)C(=O)NC(Cc1ccccc1)C(=O)C1(C)CO1)CC(=O)OC(C)(C)C (stereo not shown)
c. CCCCC(=O)N[C@H](Cc1c[nH]c2ccccc12)C(=O)N[C@@H](Cc1c[nH]c2ccccc12)C(=O)N[C@@H](Cc1ccccc1)C(=O)[C@]1(C)CO1
d. CSc1ccc(CC(=O)NC(C(=O)NC(Cc2c(F)c(F)c(F)c(F)c2F)C(=O)N[C@@H](CC(C)C)C(=O)[C@@]2(C)CO2)C(C)C)cc1 (stereo partly shown)
### Prompt Sort these molecules on pIC50 so the largest reading comes first. State the ranking by listing the labels in the requested order.
### Response c, d, b, a
(c: 8.60, d: 8.03, b: 7.36, a: 6.76)
